In this section, each of the compounds is paired with its reported inhibition of aggregation.
Test: reduction of polyQ htt aggregates in cells – imaging, exon1htt(103Q)mCFP cells, high-content imaging, primary screen (AID 483);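 note: compound exposure lasted 3 days before fixation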
Details: exon1htt(103Q)mCFP cell line, aggregate imaging, at 2 µM; stronger effect = higher value
Activity calls are given as the source filed them.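 Rule for the calls: active = visual image review flags a hit and inhibition of aggregation exceeds 20%; inconclusive = visual hit but inhibition at or below 20%; inactive = no hit on visual image review.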

1) Cn1ccnc1C(O)c1ccco1 (stereo unspecified) :: -15.7% (inactive)
2) COc1cccc(C2=NOC(C(=O)Nc3ccc(C(C)=O)cc3)C2)c1 (stereo unspecified) :: -6.4% (inactive)
3) CCc1nc2c(cnn2-c2ccc(Cl)cc2)c(=O)n1-c1ccc2c(c1)OCCO2 :: -5.1% (inactive)
4) Cc1cccc(N(C)C(=O)c2cc3cc4ccc(C)cc4nc3o2)c1 :: 11.5% (inactive)
5) CCCCc1ccc(NC(=O)c2c(C)noc2C)cc1 :: 0.1% (inactive)
6) O=c1n(CCCN2CCN(c3cccc(Cl)c3)CC2)nc2ccccn12 :: 32% (inactive)
7) Cc1ccc(F)cc1NC(=O)Cc1nn(C)c(=O)c2ccccc12 :: 4.8% (inactive)
8) CC1CC(C)CN(CCCNC(=O)COc2cc(=O)n(C)c3ccccc23)C1 (stereo unspecified) :: -17.3% (inactive)
9) Cc1ccc(S(=O)(=O)N2CCOCC2)cc1C(=O)OCC(=O)N1CCc2ccccc2C1 :: 5.4% (inactive)
10) O=C(c1ccco1)N1CCN(C(=O)C2CCN(S(=O)(=O)c3cccc4nsnc34)CC2)CC1 :: 5.1% (inactive)

Sample CC(C)OP(=O)(c1ccc(N(C)C)cc1)C(O)c1ccccc1F (stereo unspecified) — what was its inhibition of aggregation? 12.5% (inactive)

###

Experiment: reduction of polyQ htt aggregates in cells – imaging, exon1htt(103Q)mCFP cells, high-content imaging, primary screen (AID 483);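 note: compound exposure lasted 3 days before fixation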
Settings: exon1htt(103Q)mCFP cell line, aggregate imaging, at 2 µM; stronger effect = higher value
In this section, each of the molecules is paired with its reported inhibition of aggregation.
The figure you give is taken to be in %; do not add the unit.

Please review the entries below; each comes with its answer.
1) O=C(C1CCC1)N1CCc2cc(S(=O)(=O)Nc3ccc4c(c3)OCO4)ccc21 :: 18.8
2) CCn1c(=N)n(CC(=O)C23CC4CC(CC(C4)C2)C3)c2ccccc21 :: -8.2
3) COc1ccc2c(c1)CCc1c(C(=O)N3CCCc4ccccc43)noc1-2 :: 17.4
4) CC(C)c1ccc(-c2nc(N3CCCCC3)[nH]c(=O)c2C#N)cc1 :: -12

Sample C=CCOc1cccc(C2/C(=C(\O)c3ccc(F)cc3)C(=O)C(=O)N2CCN(C)C)c1 (stereo unspecified) — what was its inhibition of aggregation? 20.1

Sample `COC(=O)Cn1c2c(c3cc(C)ccc31)CCCC2` — what was its inhibition of aggregation? 23.1

Sample `CN1C(=O)CSc2ccc(NC(=O)N3CCN(c4ccccn4)CC3)cc21` — what was its inhibition of aggregation? -49

Sample `CCNc1nc(NC(C)C)nc(N(C#N)CCOc2ccc(Cl)cc2Cl)n1` — what was its inhibition of aggregation? 20.7

###

Assay: inhibitors of TNFa-induced NFkB p65 translocation, primary screen, imaging, HUVEC, MLSMR starter and 10KST1 sets (AID 438);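 note: compound added about 3h40 before a 20 min TNFalpha stimulation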
Conditions: HUVEC TNFa-induced p65 nuclear translocation; measured here: nuclei count (cytotoxicity indicator), at 2.08 µM
Label True when cell count is at or above 400; otherwise label False.

A selection of reference data follows.
1) Cn1c(=O)[nH]c(=O)c2[nH]c(CN3CCN(C(=O)c4ccco4)CC3)nc21 :: True
2) CC(C)OC(=O)CSc1nnc(Cc2ccccc2)n1Cc1ccco1 :: True
3) COc1cccc(-n2nnc3c(=O)n(Cc4cccc(F)c4)cnc32)c1 :: True
4) N#CCc1nc(CSc2nc3ccccc3s2)cs1 :: False
5) COc1ccc(-c2cc(C(F)(F)F)nc(SCC(=O)NCc3ccco3)n2)cc1OC :: True

Confirm if cell count reported for the molecule Cn1c(=O)c2c(ncn2CC(O)CNc2ccc(Cl)cc2)n(C)c1=O (stereo unspecified) is 400 or above. True

Confirm if cell count reported for the molecule `CCN1CCN(c2c(Cl)cccc2NC(=O)c2ccco2)CC1` is 400 or above. False

Confirm if cell count reported for the molecule `Cn1c(=O)cc(SCC(=O)N2CCOCC2)c2ccc(Cl)cc21` is 400 or above. True

Confirm if cell count reported for the molecule `O=c1cc(-c2ccc(Cl)cc2)[nH][nH]1` is 400 or above. True

Confirm if cell count reported for the molecule `CCOC(=O)c1c(NC(=O)CSc2nnc(-c3ccc(OC)cc3)o2)sc2c1CCC2` is 400 or above. True
